Sourced from the RNAGym collection of RNA variant scans (doi:10.7554/elife.80360)

B1: HDV Ribozyme (parent)
chain: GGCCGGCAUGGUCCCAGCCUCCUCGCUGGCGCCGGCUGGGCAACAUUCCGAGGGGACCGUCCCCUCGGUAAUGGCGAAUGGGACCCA

# Variants of: B1
# assay-protocol: self-cleavage, relative activity (ratio to wild type); higher = more cleavage; co-transcriptional

variant-name | self-cleavage
G28C C41G | 0
A71G C86A | 1.19
C22A G39C | 0.0437
A43U C57U | 0.631
G55U U65C | 0.73
A16G G67A | 0.886
C3U C30G | 0
C33G U65G | 0.222
G38A G39U | 0.0665
A8C C26U | 1.01
G17C C24A | 0.0519
